B1: ZNF449 (parent)
chain: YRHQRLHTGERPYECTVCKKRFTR

Variants of: B1
EXPERIMENT DESCRIPTION: protein stability index of a GFP-peptide fusion (GPS, HEK-293T) (PSI 1-6); higher = more stable;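 note: lentivirally expressed fusions sorted by FACS into six bins by GFP to DsRed ratio, PSI derived from sequencing read proportions per bin multiplied by bin number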
MEASUREMENT CONDITIONS: c terminus: a fixed tail appended
EXPERIMENTAL READOUT: protein stability index

Answered cases to consult:
MUTATION DESCRIPTOR: H7A
protein stability index: 2.17
//
MUTATION DESCRIPTOR: R5I
protein stability index: 1.89
//
MUTATION DESCRIPTOR: E14G
protein stability index: 2.42
//
MUTATION DESCRIPTOR: R5E
protein stability index: 1.91
//
MUTATION DESCRIPTOR: F22A
protein stability index: 2.93

Kindly indicate its recorded protein stability index. Item: R2S
2.76

Kindly indicate its recorded protein stability index. Item: H7P
1.84

Kindly indicate its recorded protein stability index. Item: T16D
2.52
